Taken from PubChem BioAssay (NCATS).

- procedure-details: qHTS assay for small molecule activators of the p53 signaling pathway (AID 651743); note: series mostly up to about 92 µM; % of control where 0% means no effect
- assay-context: HCT-116 p53RE-bla, beta-lactamase FRET ratio, 16 h; active compounds read high
Records with an inconclusive call do not appear.
measure: activation (%)
Please respond with the number in % and leave the unit unwritten.

In the examples that follow, each entry is paired with its recorded activation.
{"chemical-string": "Cc1cccc(O)c1C", "measure": "activation", "test-result": -2.61}
{"chemical-string": "CNc1ccc(O)cc1", "measure": "activation", "test-result": -13.4}
{"chemical-string": "C=CC(=O)OCCOCCOC(=O)C=C", "measure": "activation", "test-result": 2.89}
{"chemical-string": "Cc1ccc(S(=O)(=O)Oc2ccc(N=Nc3ccc(-c4ccc(N=Nc5c(O)ccc6cc(S(=O)(=O)O)cc(S(=O)(=O)O)c56)c(C)c4)cc3C)cc2)cc1", "measure": "activation", "test-result": 1.02}

Let us move to another entry and its activation.
*Q* Look up activation: "O=Cc1ccc(Cl)c(Cl)c1"
*A* -1.08
